Reference source for all entries: paper PMC5337940

The following compounds are listed with their measured half-life at 1000 ng/ml values.
assay_details: in vitro
Assay type: in vitro ADME
condition_info: human, plasma

INSERT INTO results (input_smiles, reported_value) VALUES
  ('C[C@@H]([C@H](NC(=O)[C@H](Cc1ccc2ccccc2c1)NC(=O)N[C@@H](Cc1c[nH]c2ccccc12)C(=O)O)C(=O)NC[C@H]1C[C@@H](O)[C@H](n2ccc(=O)[nH]c2=O)O1)N(C)C(=O)CN', '> 7 h'),
  ('C[C@@H]([C@H](NC(=O)[C@H](CC1CCCCC1)NC(=O)N[C@@H](Cc1c[nH]c2ccccc12)C(=O)O)C(=O)NC[C@H]1C[C@@H](O)[C@H](n2ccc(=O)[nH]c2=O)O1)N(C)C(=O)CN', '> 7 h');

Kindly consider the entry below.
Query: Please report the recorded half-life at 1000 ng/ml for `C[C@@H]([C@H](NC(=O)[C@H](CC1CCCCC1)NC(=O)N[C@@H](Cc1c[nH]c2ccccc12)C(=O)O)C(=O)NC[C@H]1C[C@@H](O)[C@H](n2ccc(=O)[nH]c2=O)O1)N(C)C(=O)[C@@H](N)Cc1cccc(O)c1` .
Reply: > 7 h
